The reader will find pIC50 measurements below, all made with ROCK2 (human).
pIC50: −log10 of the molar value.

Some compounds with known pIC50 results, for comparison:
1) COc1cc(CC(=O)N2CCCC2C(N)c2ccc(C(=O)Nc3ccncc3)cc2)cc(OC)c1OC (stereo unspecified) = 5.30 to 6.30
2) CN(CC(N)c1ccc(C(=O)Nc2ccncc2)cc1)C(=O)C1CCOc2ccccc21 (stereo unspecified) = 5.30 to 6.30
3) NC(CC(=O)NCCc1c(Cl)cccc1Cl)c1ccc(C(=O)Nc2ccncc2)cc1 (stereo unspecified) = 6.30 to 7.30
4) CN(CC(N)c1ccc(C(=O)Nc2ccncc2)cc1)C(=O)Cc1ccc(Cl)cc1Cl (stereo unspecified) = 5.30 to 6.30
5) CN(CC(N)c1ccc(C(=O)Nc2ccncc2)cc1)C(=O)C1(c2ccc(F)c(Cl)c2)CC1 (stereo unspecified) = 5.30 to 6.30

# returns recorded pIC50 (system: ROCK2 (human)) for CN(CCO)C(=O)CC(N)c1ccc(C(=O)Nc2ccncc2)cc1 (stereo unspecified)
6.30 to 7.30

Same read-out for CC(C)(Cc1ccc(F)cc1)NC(=O)CC(N)c1ccc(C(=O)Nc2ccncc2)cc1 (stereo unspecified) ?
6.30 to 7.30

Now the same for NC(c1ccc(C(=O)Nc2ccncc2)cc1)C1CCCN1C(=O)C1CCCc2ccccc21 (stereo unspecified)
5.30 to 6.30

Moving on to NC(c1ccc(C(=O)Nc2ccncc2)cc1)C1CCCN1C(=O)C1CCSc2ccccc21 (stereo unspecified)
5.30 to 6.30

----------
- System name: ROCK2 (human)
Outcome measure: IC50

Consider the reported IC50 for these compounds:
1. Cc1ccccc1CNC(=O)NCC(N)c1ccc(C(=O)Nc2ccncc2)cc1 (configuration not stated) = 50 to 500 nM
2. NC(CC(=O)NCc1cc(C(F)(F)F)cc(C(F)(F)F)c1)c1ccc(C(=O)Nc2ccncc2)cc1 (configuration not stated) = 50 to 500 nM

What does the data say about its IC50? Entry: NC(CC(=O)NCCc1ccccc1Cl)c1ccc(C(=O)Nc2ccncc2)cc1 (configuration not stated)
50 to 500 nM

Then what about the compound NC(CC(=O)Nc1ccccc1)c1ccc(C(=O)Nc2ccncc2)cc1 (configuration not stated) ?
50 to 500 nM

Queued: NC(CNC(=O)c1ccc2ccccc2n1)c1ccc(C(=O)Nc2ccncc2)cc1 (configuration not stated)
50 to 500 nM

Param item: NC(CNC(=O)CCc1ccccc1)c1ccc(C(=O)Nc2ccncc2)cc1 (configuration not stated)
50 to 500 nM

And what about the compound NC(c1ccc(C(=O)Nc2ccncc2)cc1)C1CCCN1C(=O)Cc1cccc(F)c1F (configuration not stated) ?
500 to 5000 nM

Request: CC(C)CCC(=O)NCC(N)c1ccc(C(=O)Nc2ccncc2)cc1 (configuration not stated)
500 to 5000 nM

----------
The compounds below have reported IC50 for ROCK2 (human) (UniProt O75116).

# count of solved cases: 3
1. NC(CNC(=S)Nc1cccc2ccccc12)c1ccc(C(=O)Nc2ccncc2)cc1 (centres undefined) = 50 to 500 nM
2. NC(CNC(=O)c1ccccc1-c1ccccc1)c1ccc(C(=O)Nc2ccncc2)cc1 (centres undefined) = 500 to 5000 nM
3. CN(CC(N)c1ccc(C(=O)Nc2ccncc2)cc1)C(=O)Cc1csc2ccccc12 (centres undefined) = 500 to 5000 nM

// next entry
Which IC50 is listed for NC(CC(=O)NCc1ccncc1)c1ccc(C(=O)Nc2ccncc2)cc1 (centres undefined) ?
50 to 500 nM

Sourced from the Kinase Knowledgebase extract (Sharma et al. 2016)
